Reference for the values: ChEMBL document CHEMBL5441456

# system-tested: Replicase polyprotein 1ab (Severe acute respiratory syndrome coronavirus 2, UniProt P0DTD1)
# procedure-details: Functional biochemical assay to identify treatments for viral infectious disease that targets SARS-COV-2 nsp3 macrodomain, whereby the mechanism of action displaces an ADP-Ribose modified peptide from the binding site. Utilizing a time-resolved fluorescence method to measure binding by reading the emitted fluorescence intensity in two wavelengths.
pIC50: −log10 of the molar value.
Catalogue of compounds with associated pIC50

Recorded results for 4 compounds are shown here.
{"smi": "Cn1cc([C@@H](NC(=O)c2c[nH]c3c(NC(=O)NC4CC4)cccc23)C2CCC2)cn1", "pIC50": "< 4.00"}
{"smi": "CC(C)[C@@H](Nc1ncnc2[nH]c(-c3ccc(-n4cccn4)cc3)cc12)c1ccc2c(c1)OCCO2", "pIC50": "< 4.00"}
{"smi": "Cc1[nH]c2ncnc(NC(=O)[C@@H]3CCc4c(Cl)cccc43)c2c1C", "pIC50": "< 4.00"}
{"smi": "O=C(c1ccccc1)N1CCC(c2ccn3ncc(C(=O)N4CCCC[C@H](O)C4)c3c2)CC1", "pIC50": "< 4.00"}

Next up:
Fill in pIC50 for record `CC(C)[C@@H](Nc1ncnc2[nH]ccc12)c1nc2ccccc2[nH]1`
4.02

###

IC50 for assorted compounds
# system-tested: Replicase polyprotein 1ab (Severe acute respiratory syndrome coronavirus 2, UniProt P0DTD1)
# procedure-details: Functional biochemical assay to identify treatments for viral infectious disease that targets SARS-COV-2 nsp3 macrodomain, whereby the mechanism of action displaces an ADP-Ribose modified peptide from the binding site. Utilizing a time-resolved fluorescence method to measure binding by reading the emitted fluorescence intensity in two wavelengths.

{"smi": "Cc1ccc2snc(C(=O)N(C)CC[C@@H](Nc3ncnc4[nH]ccc34)C(C)C)c2c1", "result": "> 99.5 µM"}
{"smi": "CC(C)[C@H](Nc1ncnc(N)c1F)c1ccc2c(c1)S(=O)(=O)CCC2", "result": "> 99.5 µM"}
{"smi": "O=C(O)c1cn(CCCNC(=O)c2ncnc3[nH]ccc23)nn1", "result": "> 99.5 µM"}
{"smi": "CC(C)[C@H](Nc1cc(-n2nccn2)ncn1)c1ccc2c(c1)S(=O)(=O)CCC2", "result": "> 99.5 µM"}
{"smi": "CC(C)[C@@H](CO)NC(=O)c1c[nH]c2c(NC(=O)NC3CC3)cccc12", "result": "> 99.5 µM"}
{"smi": "Cc1[nH]c2ncnc(NC(=O)c3cccc(Cl)n3)c2c1C", "result": "> 99.5 µM"}
{"smi": "CC(C)[C@@H](Nc1cnc(C(=O)O)cn1)c1ccc2c(c1)OCCO2", "result": "> 99.5 µM"}
{"smi": "CC(C)[C@@H](CCN(C)C(=O)c1cccc2cc(F)ccc12)Nc1ncnc2[nH]ccc12", "result": "> 99.5 µM"}

Please list IC50 recorded for the compound `CNc1ncnc(N[C@H](c2ccc3c(c2)S(=O)(=O)CCC3)C(C)C)c1Cl`
> 99.5 µM

###

# system-tested: Replicase polyprotein 1ab (Severe acute respiratory syndrome coronavirus 2)
# procedure-details: Functional biochemical assay to identify treatments for viral infectious disease that targets SARS-COV-2 nsp3 macrodomain, whereby the mechanism of action displaces an ADP-Ribose modified peptide from the binding site. Utilizing a time-resolved fluorescence method to measure binding by reading the emitted fluorescence intensity in two wavelengths.
This listing pairs compounds with measured IC50.

// worked examples, IC50 included
{"smi": "Cc1[nH]c2ncnc(NC(=O)c3cccnn3)c2c1C", "system-tested": "Replicase polyprotein 1ab (Severe acute respiratory syndrome coronavirus 2)", "result": "> 99.5 µM"}
{"smi": "NC(=O)c1ccc(S(=O)(=O)Nc2cnc3[nH]ccc3c2)cc1", "system-tested": "Replicase polyprotein 1ab (Severe acute respiratory syndrome coronavirus 2)", "result": "> 99.5 µM"}
{"smi": "CC(C)[C@@H](Nc1ncc2c(n1)CCCC2)c1ccc2c(c1)OCCO2", "system-tested": "Replicase polyprotein 1ab (Severe acute respiratory syndrome coronavirus 2)", "result": "> 99.5 µM"}

Specify reported IC50 for the compound shown: `CC(C)[C@H](Nc1cc(O)ncn1)c1ccc2c(c1)S(=O)(=O)CCC2`
> 99.5 µM

Please give the documented IC50 of `CNCc1cc(-c2cc3c(N[C@H](c4ccc5c(c4)S(=O)(=O)CCO5)C(C)C)ncnc3[nH]2)co1`
0.057 µM
